Target: T1, Rat CTGF (Rattus norvegicus, UniProt Q9R1E9)
T1 construct: purchased R&D Systems
T1 sequence (Q9R1E9 25-347): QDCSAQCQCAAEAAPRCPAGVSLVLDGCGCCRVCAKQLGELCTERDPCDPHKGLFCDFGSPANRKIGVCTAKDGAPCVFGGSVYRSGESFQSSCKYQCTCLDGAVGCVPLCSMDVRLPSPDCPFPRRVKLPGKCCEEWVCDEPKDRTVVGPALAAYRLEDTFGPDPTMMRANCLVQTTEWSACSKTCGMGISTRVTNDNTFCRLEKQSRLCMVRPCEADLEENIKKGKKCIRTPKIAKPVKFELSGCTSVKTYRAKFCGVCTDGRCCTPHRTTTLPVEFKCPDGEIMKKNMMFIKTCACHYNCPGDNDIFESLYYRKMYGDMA
Test: SPR binding kinetics and affinity, rat CTGF
Details: 25° C., 1:1 binding model
The entries below come with measured Rat CTGF koff values attached.
Field: numeric (s⁻¹). Do not append units.

SEQ ID NO: 29: parent CTGF-binding hNGAL lipocalin mutein (protein, lipocalin mutein) QDSTSDLIPAPPLSKVPLQQNFQDNQFHGKWYVVGWAGNIKLREDKDPFKMSATIYELKEDKSYNVTEVVFEQKKCHYIIKTFVPGSQPGEFTLGDIKSPPGETSSLVRVVSTNYNQHAMVFFKKVFQNREFFWITLYGRTKELTSELKENFIRFSKSLGLPENHIVFPVPIDQCIDG	0.00317

Please find the next molecule below.
query: Data request, read-out Rat CTGF koff, for SEQ ID NO: 3: parent CTGF-binding hNGAL lipocalin mutein (protein, lipocalin mutein) QDSTSDLIPAPPLSKVPLQQNFQDNQFHGKWYVVGRAGNNRLREDKDPPKMWATIYELKEDKSYNVTHVHFMTKKCRYIIDTFVPGSQPGEFTLGAIKSGPGMTSPLVRIVSTNYNQHAMVFFKWVNQNREWFTITLYGRTKELTSELKENFIRFSKSLGLPENHIVFPVPIDQCIDG
result: 0.0117
